B1: EHEE_rd4_0726 (parent)
chain: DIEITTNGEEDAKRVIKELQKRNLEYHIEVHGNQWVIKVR

variants of: B1; assay: folding stability dG (cDNA display proteolysis); higher = more stable; conditions: PBS, room temperature
I'd appreciate it if you could supply folding stability dG values for the items below.

{"sequence.text": "DIEITTNGEEDAKRVINELQKRNLEYHIEVHGNQWVIKVR [K17N]", "folding stability dG": "2.05 kcal/mol"}

Required: folding stability dG, one value per variant below.
1. DILITTNGEEDAKRVIKELQKRNLEYHIEVHGNQWVIKVR [E3L]
2. DIEITTNGEEDAKRVIQELQKRNLEYHIEVHGNQWVIKVR [K17Q]
3. DIEITTNGEEDAKRVIKELQKRNLIYHIEVHGNQWVIKVR [E25I]
4. DIEITTNGEEDAKRVIKELQKVNLEYHIEVHGNQWVIKVR [R22V]
5. DIEITTNGEEDAKRVIKELQKRNAEYHIEVHGNQWVIKVR [L24A]
6. DIEITTNGEEDAKRVIKELQKRNLTYHIEVHGNQWVIKVR [E25T]

1. 2.76 kcal/mol
2. 2.46 kcal/mol
3. 2.66 kcal/mol
4. 1.45 kcal/mol
5. 1.7 kcal/mol
6. 2.66 kcal/mol

Data provenance: the MegaScale stability set (Tsuboyama et al. 2023)
